These data points were gathered from ChEMBL document CHEMBL1139648.

test: Half life in rat at 3 mg/kg, iv or 5 mg/kg, po; assay type: ADME, organism-based; details: in vivo
Measurement Label: half-life
Just so you know, I need the unit written after the number.

q: What value of half-life has been recorded for this entry: CN[C@H]1CC[C@@H](c2ccc(Cl)c(Cl)c2)c2ccc(S(N)(=O)=O)cc21
a: 4 h

* * *

biological target: Sodium-dependent noradrenaline transporter (Homo sapiens, UniProt P23975); assay: Inhibition of noradrenaline re-uptake at human noradrenaline transporter expressed in HEK293 cells
Sequence (P23975 whole entry): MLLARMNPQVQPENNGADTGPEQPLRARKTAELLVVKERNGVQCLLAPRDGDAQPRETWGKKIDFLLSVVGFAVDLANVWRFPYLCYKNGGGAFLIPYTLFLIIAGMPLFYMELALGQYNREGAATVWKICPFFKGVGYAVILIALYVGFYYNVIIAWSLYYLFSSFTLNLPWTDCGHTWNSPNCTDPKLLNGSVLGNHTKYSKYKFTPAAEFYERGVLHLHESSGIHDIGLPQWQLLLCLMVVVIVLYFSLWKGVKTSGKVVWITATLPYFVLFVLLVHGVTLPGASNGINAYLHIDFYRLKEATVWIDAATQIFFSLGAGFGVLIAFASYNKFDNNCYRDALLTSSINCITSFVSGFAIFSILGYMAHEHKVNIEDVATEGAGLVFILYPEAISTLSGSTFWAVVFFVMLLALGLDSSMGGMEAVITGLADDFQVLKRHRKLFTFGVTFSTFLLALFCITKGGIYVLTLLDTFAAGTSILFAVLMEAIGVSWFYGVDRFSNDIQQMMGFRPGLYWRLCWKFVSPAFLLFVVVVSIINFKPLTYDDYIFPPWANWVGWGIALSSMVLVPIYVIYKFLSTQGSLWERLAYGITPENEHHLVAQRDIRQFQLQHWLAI
Measurement Label: IC50

Example entries and their recorded answers appear below.
CN[C@H]1CC[C@@H](c2ccc(Cl)c(Cl)c2)c2ccc(C#N)cc21; 3200 nM
CNC(=O)c1cccc2c1[C@@H](NC)CC[C@H]2c1ccc(Cl)c(Cl)c1; 1500 nM
CN[C@@H]1CC[C@@H](c2ccc(Cl)c(Cl)c2)c2ccc(S(N)(=O)=O)cc21; 310 nM
CN[C@H]1CC[C@@H](c2ccc(Cl)c(Cl)c2)c2cc(C(N)=O)ccc21; 1100 nM
CN[C@H]1CC[C@@H](c2ccc(Cl)c(Cl)c2)c2ccc(CC(=O)O)cc21; 9600 nM

q: Return reported IC50; argument: CN[C@H]1CC[C@@H](c2ccc(Cl)c(Cl)c2)c2cc(C(N)=O)c(NS(C)(=O)=O)cc21
a: 2100 nM

q: Here is the next compound: CN[C@H]1CC[C@@H](c2ccc(Cl)c(Cl)c2)c2cccc(C(=O)O)c21
a: 880 nM

q: For CN[C@H]1CC[C@@H](c2ccc(Cl)c(Cl)c2)c2ccc(S(C)(=O)=O)cc21 then?
a: 2100 nM
